Numbers sourced from patent US8796277B2.

System: transformed human keratinocyte cell line (FEP 1811)
experiment: Clonogenic survival cell culture assay for cytotoxicity (un-irradiated cells)
Type: cell-based
study_conditions: un-irradiated FEP 1811 cells, one hour drug incubation, colonies counted after eight days; concentrations in FIG. 1 plotted in μM; read-out: cytotoxicity C50 (drug concentration corresponding to 50% survival)
endpoint: IC50
Write the quantity with the unit trailing the number.

CN1CCN(c2ccc3[nH]c(-c4ccc5[nH]c(-c6c(F)cc(N(C)C)cc6F)nc5c4)nc3c2)CC1 : 25 µM
Cc1cc(N(C)C)ccc1-c1nc2ccc(-c3nc4ccc(N5CCN(C)CC5)cc4[nH]3)cc2[nH]1 [methylproamine, reference compound] : 19.3 µM
CNc1ccc(F)c(-c2nc3cc(-c4nc5cc(N6CCN(C)CC6)ccc5[nH]4)ccc3[nH]2)c1 : 151 µM

Enquiry: Need IC50, item CN1CCN(c2ccc3[nH]c(-c4ccc5[nH]c(-c6ccc(N(C)C)cc6F)nc5c4)nc3c2)CC1
Return: 28 µM

* * *

IC50 listing for selected molecules.
Tested on: transformed human keratinocyte cell line (FEP 1811)
experiment: Clonogenic survival cell culture assay for cytotoxicity (un-irradiated cells)
Type: cell-based
study_conditions: un-irradiated FEP 1811 cells, one hour drug incubation, colonies counted after eight days; concentrations in FIG. 1 plotted in μM; read-out: cytotoxicity C50 (drug concentration corresponding to 50% survival)

CNc1ccc(-c2nc3cc(-c4nc5cc(N6CCN(C)CC6)ccc5[nH]4)ccc3[nH]2)c(F)c1 : 218 µM
CNc1cc(F)c(-c2nc3cc(-c4nc5cc(N6CCN(C)CC6)ccc5[nH]4)ccc3[nH]2)cc1F : 51.4 µM
CN1CCN(c2ccc3[nH]c(-c4ccc5[nH]c(-c6ccc(N(C)C)cc6Cl)nc5c4)nc3c2)CC1 : 18 µM
CN1CCN(c2ccc3[nH]c(-c4ccc5[nH]c(-c6ccc(N(C)C)c(F)c6)nc5c4)nc3c2)CC1 : 26 µM

Enquiry: Need IC50, item COc1ccc(-c2nc3cc(-c4nc5cc(N6CCN(C)CC6)ccc5[nH]4)ccc3[nH]2)cc1F
Return: 91 µM

Enquiry: Need IC50, item CN1CCN(c2ccc3[nH]c(-c4ccc5[nH]c(-c6cc(N(C)C)ccc6F)nc5c4)nc3c2)CC1
Return: 21.9 µM

Enquiry: Need IC50, item CN1CCN(c2ccc3[nH]c(-c4ccc5[nH]c(-c6ccc(F)cc6)nc5c4)nc3c2)CC1
Return: 34 µM
